# assayDetails: Solubility of EW-7197 at various pH values
# Format: physicochemical
# conditionInfo: citrate buffer, pH 3, aqueous buffer, thermodynamic from solid, pH 3.0, Citrate buffer; pH after equilibration 3.30; read-out: Solubility Average (n = 2)
# Text: In order to use EW-7197 for treating or preventing TFG-β signaling related ocular diseases, postsurgical peritoneal adhesions, postsurgical anastomotic strictures, hypertrophic scar, or keloid in human, formulation development of an aqueous solution containing appropriate amounts of EW-7197 is needed.
assayMetric: solubility (µg/mL)

[
  {
    "molecule": "Cc1cccc(-c2[nH]c(CNc3ccccc3F)nc2-c2ccc3ncnn3c2)n1 [EW-7197]",
    "testResult": 1010
  }
]

====

# assayDetails: Solubility of EW-7197 at various pH values
# Assay type: physicochemical
# conditionInfo: citrate buffer, pH 3, aqueous buffer, thermodynamic from solid, pH 3.0, Citrate buffer; pH after equilibration 3.30; read-out: Solubility Trial 1
assayMetric: solubility

[
  {
    "smilesRepr": "Cc1cccc(-c2[nH]c(CNc3ccccc3F)nc2-c2ccc3ncnn3c2)n1",
    "assayMetric": "solubility",
    "testResult": "1000 µg/mL"
  }
]

====

# assayDetails: Solubility of EW-7197 at various pH values
# Format: physicochemical
# conditionInfo: hydrochloric acid buffer, pH 1.2, simulated gastric fluid, thermodynamic from solid, pH 1.2, Hydrochloric acid buffer; pH after equilibration 2.81; read-out: Solubility Trial 2

[
  {
    "smilesRepr": "Cc1cccc(-c2[nH]c(CNc3ccccc3F)nc2-c2ccc3ncnn3c2)n1",
    "solubility [mg/mL]": 25
  }
]

====

# assayDetails: Solubility of EW-7197 at various pH values
# Assay type: physicochemical
# conditionInfo: phosphate buffer, pH 7.4, aqueous buffer, thermodynamic from solid, pH 7.4, Phosphate buffer; pH after equilibration 7.32; read-out: Solubility Average (n = 2)
assayMetric: solubility (µg/mL)

[
  {
    "smilesRepr": "Cc1cccc(-c2[nH]c(CNc3ccccc3F)nc2-c2ccc3ncnn3c2)n1",
    "valueUnits": "µg/mL",
    "testResult": 13
  }
]

====

# assayDetails: Solubility of EW-7197 at various pH values
# Format: physicochemical
# conditionInfo: phosphate buffer, pH 7.4, aqueous buffer, thermodynamic from solid, pH 7.4, Phosphate buffer; pH after equilibration 7.32; read-out: Solubility Trial 1
assayMetric: solubility (µg/mL)

[
  {
    "smilesRepr": "Cc1cccc(-c2[nH]c(CNc3ccccc3F)nc2-c2ccc3ncnn3c2)n1",
    "valueUnits": "µg/mL",
    "testResult": 13
  }
]

====

# assayDetails: Solubility of EW-7197 at various pH values
# Type: physicochemical
# conditionInfo: phosphate buffer, pH 6.8, aqueous buffer, thermodynamic from solid, pH 6.8, Phosphate buffer; pH after equilibration 6.79; read-out: Solubility Trial 2

[
  {
    "compound": "Cc1cccc(-c2[nH]c(CNc3ccccc3F)nc2-c2ccc3ncnn3c2)n1 [EW-7197]",
    "valueUnits": "µg/mL",
    "solubility": 13
  }
]

====

# assayDetails: Solubility of EW-7197 at various pH values
# Format: physicochemical
# conditionInfo: phosphate buffer, pH 6, aqueous buffer, thermodynamic from solid, pH 6.0, Phosphate buffer; pH after equilibration 5.96; read-out: Solubility Trial 1

[
  {
    "compound": "Cc1cccc(-c2[nH]c(CNc3ccccc3F)nc2-c2ccc3ncnn3c2)n1 [EW-7197]",
    "solubility / µg/mL": 12
  }
]
